B1: Azoarcus group I ribozyme (parent)
chain: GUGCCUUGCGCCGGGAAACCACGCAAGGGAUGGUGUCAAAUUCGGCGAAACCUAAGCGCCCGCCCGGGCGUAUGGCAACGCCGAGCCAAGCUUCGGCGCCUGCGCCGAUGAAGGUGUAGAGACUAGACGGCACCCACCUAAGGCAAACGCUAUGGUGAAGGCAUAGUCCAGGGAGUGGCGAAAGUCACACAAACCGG

Variants of: B1
Assay: reverse-splicing fitness (ratio to wild type); higher = more active; in vitro selection; Mg2+ level not given
Measured reverse-splicing fitness accompanies every entry in the list below.
endpoint.label: reverse-splicing fitness

C82U A145G C150G U176G :: 0.0108
C82U A111C A120G A145G C169U U176C :: 0.0125
C82A A111U A120C A145G C150G C169G :: 0.00768
C82A A111C A120G C169G :: 0.00872
C82A A111U A120U C150G C169U U176G :: 0.00327
A111C A145G U176G :: 0.185
A120C C169A :: 0.0364
A120G A145U C150U C169A U176A :: 0.08
C82G A111C A120C A145U C150G C169A U176A :: 0.0121
C82A A120C A145U C150A C169U U176C :: 0.0126
C82A A111G A145G C169G :: 0.00988
A111U A145G C169U U176A :: 0.0265
C82U A111G A120U A145G C169A :: 0.00248
C82U A111U A145G C150U C169A :: 0.0102
C82G A111C A145G C150U C169A U176C :: 0.0146
C82G A111G A120G A145G C150U C169U U176A :: 0.0177
C82G A111G A145G C169A :: 0.00875
A111G A120C C150U U176C :: 0.337
C82A C150U C169U U176A :: 0.0141
A111C A145G C169A U176A :: 0.0288
C82G A111U A120G A145C C150U C169A :: 0.00886
C82U A111C A120G C150G C169G U176C :: 0.00488
